Each recorded value in this set is attributed to patent US12624112.

# measured-target: T1, ST2 on the effector cells (KU812, KU812/NF-κB-1#, HUVEC, HMC-1) (human, UniProt Q01638 19-556)
# T1 sequence (looked up): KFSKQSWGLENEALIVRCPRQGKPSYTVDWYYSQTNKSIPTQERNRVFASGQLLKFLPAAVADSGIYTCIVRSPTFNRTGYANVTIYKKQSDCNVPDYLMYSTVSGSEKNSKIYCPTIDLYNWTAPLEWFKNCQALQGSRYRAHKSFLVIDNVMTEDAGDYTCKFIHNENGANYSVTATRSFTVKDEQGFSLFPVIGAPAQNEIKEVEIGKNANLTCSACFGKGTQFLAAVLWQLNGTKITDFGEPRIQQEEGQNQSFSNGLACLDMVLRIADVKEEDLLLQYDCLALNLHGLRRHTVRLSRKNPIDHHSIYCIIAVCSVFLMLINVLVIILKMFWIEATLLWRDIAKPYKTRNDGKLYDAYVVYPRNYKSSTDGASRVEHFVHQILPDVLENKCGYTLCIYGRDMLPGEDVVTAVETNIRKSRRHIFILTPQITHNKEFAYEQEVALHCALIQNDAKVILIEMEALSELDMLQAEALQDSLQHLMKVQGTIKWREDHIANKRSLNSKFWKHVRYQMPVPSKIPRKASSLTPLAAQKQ
# protocol-text: cell-based or functional assay
List of IC50, inhibition of HMC-1 IL8 production promoted by IL33 values.
Write the answer as a number in µg/mL, unit excluded.

1. 5887-41-H1L0 (antibody, human IgG4 S228P, kappa, V domains shown, Humanized antibody) VH: QVQLQESGPGLVKPSQTLSLTCTVSGYSITSDYAWDWIRQPPGKGLEWIGYIRYSGDTYYNPSLKSRVTISRDTSKNQFSLKLSSVTAADTAVYYCATTMMDTMDYWGQGTLVTVSS VL: DIVLTQSPASLAVSPGQRATITCRASKSVSTSGNSYMHWYQQKPGQPPKLLIYLASNLESGVPARFSGSGSGTDFTLTINPVEANDTANYYCQHSREFPLTFGQGTKLEIKR = 0.123
2. 5888-153-H0L1 (antibody, human IgG4 S228P, kappa, V domains shown, Humanized antibody) VH: QVQLVQSGAEVKKPGASVKVSCKASGYTFTDYELHWVRQAPGQGLEWMGTIDPETGDTVYNQKFKARVTMTRDTSTSTVYMELSSLRSEDTAVYYCARAFYNDYDDGFAYWGQGTLVTVSS VL: EIVMTQSPATLSLSPGERATLSCSVSSSVSYMHWYQQKPGQAPRRLIYDTSKLASGIPARFSGSGSGTDYTLTISSLEPEDAAVYYCQQWNSSPLTFGGGTKVEIKR = 0.0359
3. 5888-153-H3L1 (antibody, human IgG4 S228P, kappa, V domains shown, Humanized antibody) VH: QVQLVQSGAEVKKPGASVKVSCKASGYTFTDYELHWVRQAPGQGLEWMGTIDPETGDTVYNQKFKARVTMTADKSTSTAYMELSSLRSEDTAVYYCTRAFYNDYDDAFAYWGQGTLVTVSS VL: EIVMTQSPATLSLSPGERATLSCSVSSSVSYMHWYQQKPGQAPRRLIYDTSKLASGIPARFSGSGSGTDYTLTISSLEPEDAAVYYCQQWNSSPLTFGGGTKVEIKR = 0.0472

According to the records, this binder 5886-156-H1L0 (antibody, human IgG4 S228P, kappa, V domains shown, Humanized antibody expressed in CHO-K1, purified by protein A) VH: QVQLQESGPGLVKPSQTLSLTCTVSGYSITSDYAWNWIRQPPGKGLEWIGYIDYSGSTTYNPSLKSRVTISRDTSKNQFSLKLSSVTAADTAVYYCASTVIDSMDYWGQGTLVTVSS VL: DIVLTQSPASLAVSPGQRATITCRASKSVSTSGHSYMHWYQQKPGQPPKLLIYLASNLESGVPARFSGSGSGTDFTLTINPVEANDTANYYCQHSREFPFTFGQGTKVEIKR displays IC50, inhibition of HMC-1 IL8 production promoted by IL33 of 0.177

IC50, inhibition of HMC-1 IL8 production promoted by IL33 recorded for this binder, 5888-116-H0L1 (antibody, human IgG4 S228P, kappa, V domains shown, Humanized antibody) VH: QVQLVQSGAEVKKPGASVKVSCKASGYTFTDSEMYWVRQAPGQGLEWMGAIDPETGDTAFNQKFKGRVTMTRDTSTSTVYMELSSLRSEDTAVYYCARAFDNDNDDGFAYWGQGTMVTVSS VL: DIQMTQSPSSLSASVGDRVTITCSASSSVNYMHWYQQKPGKAPKRLIYDTSKLASGVPSRFSGSGSGTDYTFTISSLQPEDAATYYCQQWSSNPLTFGQGTKLEIKR , is 0.00551

Entry 5888-153-H3L2 (antibody, human IgG4 S228P, kappa, V domains shown, Humanized antibody) VH: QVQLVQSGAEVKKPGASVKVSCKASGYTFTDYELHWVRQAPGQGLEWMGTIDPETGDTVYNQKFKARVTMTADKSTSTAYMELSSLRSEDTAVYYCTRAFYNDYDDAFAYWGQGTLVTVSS VL: EIVMTQSPATLSLSPGERATLSCSVSSSVSYMHWYQQKPGQAPRRLIYDTSKLASGIPARFSGSGSGTDYTLTISSLEPEDAAVYYCQQWNTSPLTFGGGTKVEIKR , IC50, inhibition of HMC-1 IL8 production promoted by IL33 reported as 0.0944
